Tested on: Myzus persicae
Experiment notes: Insecticidal activity against Myzus persicae (green peach aphid) infested Brassica campestris stems followed by leaf exposure to test compound spraying assessed as insect mortality at 1 ppm measured 5 days post compound treatment by contact exposure test
Assay type: functional
Measurement parameters: 120 h
Could you please report measured mortality at 1 ppm for the items listed next?
State the value, then name its unit.

For each listed entry, give its mortality at 1 ppm.
1. Cc1cc(C)c(C2=C(O)C(C)(C)N(OCc3ccccc3)C2=O)c(C)c1
2. COCCON1C(=O)C(c2c(C)cc(C)cc2C)=C(O)C1(C)C

1. 0%
2. 0%

For each listed entry, give its mortality at 1 ppm.
1. COCON1C(=O)C(c2c(C)cc(C)cc2C)=C(OC(=O)CC(C)(C)C)C1(C)C
2. Cc1cc(C)c(C2=C(OC(=O)CC(C)(C)C)C(C)(C)N(OC(=O)N(C)C)C2=O)c(C)c1
3. C#CCON1C(=O)C(c2c(C)cc(C)cc2C)=C(O)C1(C)C
4. CON1C(=O)C(c2c(C)cc(C)cc2C)=C(OC(=O)CC(C)(C)C)C1(C)C
5. Cc1cc(C)c(C2=C(OC(=O)CC(C)(C)C)C(C)(C)N(OS(C)(=O)=O)C2=O)c(C)c1
6. Cc1cc(C)c(C2=C(OC(=O)CC(C)(C)C)C(C)(C)N(OC(=O)CC(C)(C)C)C2=O)c(C)c1
7. C=CCON1C(=O)C(c2c(C)cc(C)cc2C)=C(O)C1(C)C
8. CCCON1C(=O)C(c2c(C)cc(C)cc2C)=C(O)C1(C)C

1: 100%; 2: 0%; 3: 0%; 4: 0%; 5: 0%; 6: 0%; 7: 0%; 8: 0%
